# TARGET DESC: USP1/UAF1 (Homo sapiens (Human), UniProt O94782)
# Sequence (O94782 whole entry): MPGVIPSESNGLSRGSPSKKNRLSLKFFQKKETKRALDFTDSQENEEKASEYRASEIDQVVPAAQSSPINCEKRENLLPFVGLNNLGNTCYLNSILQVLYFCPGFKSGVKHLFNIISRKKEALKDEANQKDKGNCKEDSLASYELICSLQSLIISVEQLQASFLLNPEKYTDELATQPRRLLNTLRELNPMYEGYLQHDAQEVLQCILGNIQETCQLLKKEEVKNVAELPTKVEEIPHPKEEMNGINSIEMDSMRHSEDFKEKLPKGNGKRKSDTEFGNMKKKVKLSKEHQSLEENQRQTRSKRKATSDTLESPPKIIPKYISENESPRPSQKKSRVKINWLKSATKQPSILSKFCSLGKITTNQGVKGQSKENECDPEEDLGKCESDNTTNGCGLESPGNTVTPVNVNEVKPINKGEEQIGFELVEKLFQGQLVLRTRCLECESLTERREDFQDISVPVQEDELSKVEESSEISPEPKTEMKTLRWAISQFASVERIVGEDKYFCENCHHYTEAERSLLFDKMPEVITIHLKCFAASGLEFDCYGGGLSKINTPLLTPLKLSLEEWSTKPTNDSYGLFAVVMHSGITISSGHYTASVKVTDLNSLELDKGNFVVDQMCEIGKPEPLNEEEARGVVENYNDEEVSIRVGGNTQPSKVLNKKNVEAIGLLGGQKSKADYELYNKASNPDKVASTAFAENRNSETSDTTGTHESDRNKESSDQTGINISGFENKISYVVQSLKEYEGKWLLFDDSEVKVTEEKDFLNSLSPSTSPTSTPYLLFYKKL
# Sequence (Q8TAF3 whole entry partner): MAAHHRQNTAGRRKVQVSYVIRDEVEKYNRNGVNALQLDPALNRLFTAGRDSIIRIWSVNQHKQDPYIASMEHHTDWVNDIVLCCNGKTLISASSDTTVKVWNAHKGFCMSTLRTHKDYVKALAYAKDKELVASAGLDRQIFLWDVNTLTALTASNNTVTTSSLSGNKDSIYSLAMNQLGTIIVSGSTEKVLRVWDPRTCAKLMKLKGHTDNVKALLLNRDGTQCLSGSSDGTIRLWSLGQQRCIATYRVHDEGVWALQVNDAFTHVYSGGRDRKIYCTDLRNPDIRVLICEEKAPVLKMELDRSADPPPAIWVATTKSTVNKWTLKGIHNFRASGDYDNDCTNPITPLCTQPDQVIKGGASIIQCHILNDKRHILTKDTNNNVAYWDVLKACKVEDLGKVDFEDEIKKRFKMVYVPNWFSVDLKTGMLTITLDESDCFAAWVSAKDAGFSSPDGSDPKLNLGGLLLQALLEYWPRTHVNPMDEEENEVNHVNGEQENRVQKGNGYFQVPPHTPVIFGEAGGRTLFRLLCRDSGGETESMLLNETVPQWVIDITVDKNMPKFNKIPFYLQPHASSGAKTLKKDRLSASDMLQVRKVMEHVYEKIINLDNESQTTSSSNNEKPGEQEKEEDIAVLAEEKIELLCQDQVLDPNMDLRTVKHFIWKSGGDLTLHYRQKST
# EXPERIMENT: qHTS assay for USP1/UAF1 activity (fluorometric, ubiquitin-rhodamine110)
# Type: biochemical
# TEST PARAMETERS: USP1/UAF1 inhibition, Table 4
pIC50: −log10 of the molar value.
pIC50 vs 7: at or above is yes (1), below is no (0).

# example entries with known answers
>>> label("Cc1ccc(-c2ccc(CNc3nc(-c4ccccc4C(C)C)ncc3C)cc2)cn1 [Compound 72]")
"yes (1)"
>>> label("Cc1cnc(-c2ccccc2C(C)C)nc1NCc1ccc(-c2cnn[nH]2)cc1 [Compound 82]")
"no (0)"
>>> label("Cc1cnc(-c2ccccc2C(C)C)nc1NCC1CCN(c2cccnc2)CC1 [Compound 74]")
"yes (1)"
>>> label("Cc1cnc(-c2ccccc2C(C)C)nc1NCc1cccs1 [Compound 69]")
"no (0)"
>>> label("Cc1cnc(-c2ccccc2C(C)C)nc1NCc1cccnc1 [Compound 68]")
"no (0)"
>>> label("Cc1cnc(-c2ccccc2C(C)C)nc1NCC1CCN(c2cccnc2)C1 (stereo not drawn) [Compound 78]")
"no (0)"

Now take the following compound into account.
Test whether the compound Cc1cnc(-c2ccccc2C(C)C)nc1NCC1CCN(C2COC2)CC1 [Compound 85] records pIC50 of 7 or higher.
no (0)
